target: T1, cMet-Fc fusion protein (extracellular domain of the cMet receptor expressed as an Fc-fusion protein) (human, UniProt P08581 25-932); experiment: fluorescence polarization, 20 nM fluorescein peptide, cMet-Fc varied
T1 construct: extracellular domain; also called soluble cMet-Fc-fusion protein; soluble cMet receptor; not shown: Fc part
T1 sequence (P08581 25-932): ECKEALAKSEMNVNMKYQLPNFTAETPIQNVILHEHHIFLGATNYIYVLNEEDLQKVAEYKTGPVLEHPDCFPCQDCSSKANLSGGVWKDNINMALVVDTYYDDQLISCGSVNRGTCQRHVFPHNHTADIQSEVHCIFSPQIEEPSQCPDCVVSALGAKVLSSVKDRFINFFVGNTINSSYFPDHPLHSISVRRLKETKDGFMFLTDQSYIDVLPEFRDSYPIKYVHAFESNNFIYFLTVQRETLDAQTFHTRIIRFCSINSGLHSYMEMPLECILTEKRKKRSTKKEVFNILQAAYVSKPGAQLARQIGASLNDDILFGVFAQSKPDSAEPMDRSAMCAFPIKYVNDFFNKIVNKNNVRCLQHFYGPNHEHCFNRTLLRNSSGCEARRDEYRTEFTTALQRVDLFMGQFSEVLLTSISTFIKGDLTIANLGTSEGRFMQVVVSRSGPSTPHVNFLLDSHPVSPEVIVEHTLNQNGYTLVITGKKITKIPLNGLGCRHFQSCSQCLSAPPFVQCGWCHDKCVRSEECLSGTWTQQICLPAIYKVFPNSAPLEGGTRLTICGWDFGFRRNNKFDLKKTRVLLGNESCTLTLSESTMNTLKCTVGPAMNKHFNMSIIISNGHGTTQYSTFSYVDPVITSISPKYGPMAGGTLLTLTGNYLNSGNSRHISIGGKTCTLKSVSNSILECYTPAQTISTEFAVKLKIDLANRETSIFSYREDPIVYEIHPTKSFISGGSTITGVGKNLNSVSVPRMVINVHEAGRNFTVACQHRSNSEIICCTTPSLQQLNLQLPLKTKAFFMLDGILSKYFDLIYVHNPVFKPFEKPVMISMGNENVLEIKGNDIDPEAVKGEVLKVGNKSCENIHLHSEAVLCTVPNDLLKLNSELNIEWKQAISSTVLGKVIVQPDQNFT
pKd: −log10 of the molar value. fluorescein = fluorescein label on the side chain of the C-terminal Lys
Recorded pKd values for a group of binders are listed next.

[
  {
    "Binder": "Ac-AQYDTWVFQFIHEVPGELVAMQGGGK(fluorescein)-NH2 [94-E08 synthetic fluorescein-labeled peptide (SEQ ID NO: 454)]",
    "Bound sign": "=",
    "pKd": 6.03
  },
  {
    "Binder": "Ac-AGSIQCVGPPSFECTPYGTGGGK(fluorescein)-NH2 (cysteine pairing not given here) [335-D11 synthetic fluorescein-labeled peptide (SEQ ID NO: 074)]",
    "Bound sign": "=",
    "pKd": 5.48
  },
  {
    "Binder": "Ac-AQVGSPMLPSWFSFEANWSSGGGK(fluorescein)-NH2 [95-A11 synthetic fluorescein-labeled peptide (SEQ ID NO: 456)]",
    "Bound sign": "=",
    "pKd": 5.64
  },
  {
    "Binder": "Ac-AQDLKPWTAGWEPPWLWTDRGPGGGK(fluorescein)-NH2 [104-C09 synthetic fluorescein-labeled peptide (SEQ ID NO: 461)]",
    "Bound sign": "<",
    "pKd": 5.70
  },
  {
    "Binder": "Ac-AQHWDYDSGSDFWFPVFFLEHHGGGK(fluorescein)-NH2 [79-B02 synthetic fluorescein-labeled peptide (SEQ ID NO: 475)]",
    "Bound sign": "=",
    "pKd": 5.72
  },
  {
    "Binder": "Ac-AQRWSSPGMSQSFVLEWKWNDNGGGK(fluorescein)-NH2 [118-A08 synthetic fluorescein-labeled peptide (SEQ ID NO: 453)]",
    "Bound sign": "<",
    "pKd": 5.70
  },
  {
    "Binder": "Ac-GDYDYCDFDLETYIPECHSYDPGGGK(fluorescein)-NH2 (cysteine pairing not given here) [546-G02 synthetic fluorescein-labeled peptide (SEQ ID NO: 390)]",
    "Bound sign": "=",
    "pKd": 5.82
  },
  {
    "Binder": "Ac-AQWPHDGLVHWGEVIMLRFGGGK(fluorescein)-NH2 [117-F04 synthetic fluorescein-labeled peptide (SEQ ID NO: 479)]",
    "Bound sign": "=",
    "pKd": 5.77
  },
  {
    "Binder": "Ac-AQGFELWVDHTRNFFIAISPGGGK(fluorescein)-NH2 [127-A07 synthetic fluorescein-labeled peptide (SEQ ID NO: 469)]",
    "Bound sign": "=",
    "pKd": 5.62
  },
  {
    "Binder": "Ac-AQQASRFTFTDGDSYWWFEDFGGGK(fluorescein)-NH2 [525-A07 synthetic fluorescein-labeled peptide (SEQ ID NO: 449)]",
    "Bound sign": "=",
    "pKd": 5.16
  },
  {
    "Binder": "Ac-AGSFACKGPPTFACVEFGTGGGK(fluorescein)-NH2 (cysteine pairing not given here) [330-B07 synthetic fluorescein-labeled peptide (SEQ ID NO: 053)]",
    "Bound sign": "=",
    "pKd": 5.54
  }
]
